B1: glmS ribozyme (parent)
chain: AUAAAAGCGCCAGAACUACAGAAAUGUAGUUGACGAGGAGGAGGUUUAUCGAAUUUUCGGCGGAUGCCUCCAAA

- Variants of: B1
- assayComment: self-cleavage kobs at 2500 uM GlcN6P; higher = faster cleavage; RNA array
- conditionDetails: with glucosamine-6-phosphate
This sample holds only a part of the variants without activity.
Assign self-cleavage kobs at 2500 uM GlcN6P to each entry below.
Give a bare numeral; the unit s⁻¹ is implied.

What does the data say about its self-cleavage kobs at 2500 uM GlcN6P? Entry: A15C G32A U55A 0.000416

What does the data say about its self-cleavage kobs at 2500 uM GlcN6P? Entry: U31G U65G 0.000924
